TEST SYSTEM: Cytochrome P450 2C9 (Homo sapiens, UniProt P11712)
Sequence (P11712 whole entry): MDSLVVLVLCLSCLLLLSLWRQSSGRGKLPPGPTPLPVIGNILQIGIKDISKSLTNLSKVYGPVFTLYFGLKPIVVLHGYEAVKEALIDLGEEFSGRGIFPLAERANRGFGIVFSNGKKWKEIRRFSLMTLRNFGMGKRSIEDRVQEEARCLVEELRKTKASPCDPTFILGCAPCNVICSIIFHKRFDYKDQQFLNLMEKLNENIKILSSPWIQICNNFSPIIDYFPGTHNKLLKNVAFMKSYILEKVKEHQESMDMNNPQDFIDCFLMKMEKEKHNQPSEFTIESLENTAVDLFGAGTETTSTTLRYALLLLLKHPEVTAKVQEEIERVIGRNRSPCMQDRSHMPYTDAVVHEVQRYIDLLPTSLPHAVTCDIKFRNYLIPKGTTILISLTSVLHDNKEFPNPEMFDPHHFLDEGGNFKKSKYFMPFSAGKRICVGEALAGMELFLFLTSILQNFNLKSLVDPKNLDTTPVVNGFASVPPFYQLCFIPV
PROTOCOL: Inhibition of CYP2C9 (unknown origin)
Assay type: ADME
pIC50: −log10 of the molar value.
ENDPOINT: pIC50

Provide pIC50 value for the following compound: Cc1ccc(N2CCC(O)CC2)nc1C(=O)Nc1c(C)cc(C(=O)O)cc1C
< 5.00

----------
TEST SYSTEM: L-type calcium channel dihydropyridine binding site (Homo sapiens, UniProt O60840+Q01668+Q13698+Q13936)
PROTOCOL: Inhibition of L-type calcium channel dihydropyridine binding site (unknown origin) at 10 uM
Assay type: protein assay
ENDPOINT: inhibition at 10 µM (%)
Express your answer in %, writing the number without its unit.

Return the recorded inhibition at 10 µM value; entry: Cc1ccc(N2CCC(O)CC2)nc1C(=O)Nc1c(C)cc(C(=O)O)cc1C
-39

----------
TEST SYSTEM: L-type calcium channel diltiazem binding site (Homo sapiens, UniProt O60840+Q01668+Q13698+Q13936)
PROTOCOL: Inhibition of L-type calcium channel diltiazem binding site (unknown origin) at 10 uM
Assay type: protein assay
ENDPOINT: inhibition at 10 µM

Find the measured inhibition at 10 µM of Cc1ccc(N2CCC(O)CC2)nc1C(=O)Nc1c(C)cc(C(=O)O)cc1C and report it.
-23%

----------
TEST SYSTEM: UniProt:P08684
Sequence (P08684 whole entry): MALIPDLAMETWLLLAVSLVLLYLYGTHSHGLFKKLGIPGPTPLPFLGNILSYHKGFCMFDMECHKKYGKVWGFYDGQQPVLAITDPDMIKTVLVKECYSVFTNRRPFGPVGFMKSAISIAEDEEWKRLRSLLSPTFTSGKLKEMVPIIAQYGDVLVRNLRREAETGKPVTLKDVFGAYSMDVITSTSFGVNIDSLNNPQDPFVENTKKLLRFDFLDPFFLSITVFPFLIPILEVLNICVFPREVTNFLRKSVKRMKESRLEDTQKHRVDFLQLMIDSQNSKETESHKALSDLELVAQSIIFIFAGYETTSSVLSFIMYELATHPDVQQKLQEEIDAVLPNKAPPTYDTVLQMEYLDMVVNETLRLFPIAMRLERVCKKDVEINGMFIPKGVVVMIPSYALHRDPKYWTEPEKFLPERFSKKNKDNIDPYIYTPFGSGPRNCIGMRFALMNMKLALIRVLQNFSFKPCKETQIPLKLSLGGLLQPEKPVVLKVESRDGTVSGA
pIC50: −log10 of the molar value.
ENDPOINT: pIC50

Consider the compound Cc1ccc(N2CCC(O)CC2)nc1C(=O)Nc1c(C)cc(C(=O)O)cc1C . State its measured pIC50.
< 5.00

----------
PROTOCOL: Aqueous solubility of compound at pH 6 at 2 mM after 20 hrs by HPLC
Format: physicochemical
RECORDED CONDITIONS: aqueous medium
ENDPOINT: solubility at 20 h, 2000 µM (µg/mL)
State the answer as a number, implicitly in µg/mL.

These recorded examples may help you get a feel for the data.
Cc1ccc(N2CCC(C)(O)CC2)nc1C(=O)Nc1c(C)cc(C(=O)O)cc1C = 817
Cc1ccc(N2CCC(O)CC2)nc1C(=O)Nc1c(C)ccc(C(=O)O)c1C = 784

Alright, here's another compound for you.
Tell me solubility at 20 h, 2000 µM reported for Cc1ccc(N2CCC(O)CC2)nc1C(=O)Nc1c(C)cc(C(=O)O)cc1C
762

----------
TEST SYSTEM: Prostaglandin E2 receptor EP4 subtype (Homo sapiens, UniProt P35408)
Sequence (P35408 whole entry): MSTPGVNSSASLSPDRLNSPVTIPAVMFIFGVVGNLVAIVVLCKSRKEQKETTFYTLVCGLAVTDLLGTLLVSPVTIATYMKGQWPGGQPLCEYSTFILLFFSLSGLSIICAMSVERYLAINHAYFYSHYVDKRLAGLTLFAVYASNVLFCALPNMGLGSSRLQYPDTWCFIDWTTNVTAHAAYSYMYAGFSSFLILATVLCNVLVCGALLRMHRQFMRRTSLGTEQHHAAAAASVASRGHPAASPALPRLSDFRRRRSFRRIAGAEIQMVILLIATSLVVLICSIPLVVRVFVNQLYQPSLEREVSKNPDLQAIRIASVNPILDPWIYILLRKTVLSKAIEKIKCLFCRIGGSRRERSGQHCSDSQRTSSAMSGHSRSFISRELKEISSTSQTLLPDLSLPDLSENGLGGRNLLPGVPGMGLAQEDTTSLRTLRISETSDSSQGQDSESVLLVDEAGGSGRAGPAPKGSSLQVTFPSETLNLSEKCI
PROTOCOL: Antagonist activity against EP4 in human whole blood assessed as reversal of PGE2-mediated suppression of LPS-induced TNF-alpha production preincubated for 30 mins followed by LPS stimulation measured after 20 to 24 hrs by enzyme immunoassay
Type: tissue-based
ENDPOINT: pIC50
# reply with the number alone; pIC50 is -log10 of concentration in mol/L

Cc1ccc(N2CCC(C)(O)CC2)nc1C(=O)Nc1c(C)cc(C(=O)O)cc1C = 5.44
Cc1ccc(N2CCCC(CO)C2)nc1C(=O)Nc1c(C)cc(C(=O)O)cc1C (stereo not given) = 5.84
Cc1ccc(N2CCC(F)(F)CC2)nc1C(=O)Nc1c(C)cc(C(=O)O)cc1C = 5.94

Quote pIC50 reported for Cc1ccc(N2CCC(O)CC2)nc1C(=O)Nc1c(C)ccc(C(=O)O)c1C please.
5.84

Supply measured pIC50 of Cc1ccc(N2CCCC(CO)C2)nc1C(=O)Nc1c(C)ccc(C(=O)O)c1C (stereo not given) in your reply.
5.54

----------
PROTOCOL: Oral bioavailability in dog at 5 mg/kg
Format: ADME, organism-based, Canis lupus familiaris
RECORDED CONDITIONS: in vivo
ENDPOINT: bioavailability
Write the quantity with the unit trailing the number.

Quote bioavailability reported for Cc1ccc(N2CCC(O)CC2)nc1C(=O)Nc1c(C)cc(C(=O)O)cc1C please.
75%

----------
PROTOCOL: Cmax in rat at 5 mg/kg, po
Format: ADME, organism-based
Set-up: dose 5 mg/kg, route oral
RECORDED CONDITIONS: in vivo
ENDPOINT: Cmax (ng/mL)
Report only the number, with the unit ng/mL understood.

Fill in reported Cmax for this entry: Cc1ccc(N2CCC(O)CC2)nc1C(=O)Nc1c(C)cc(C(=O)O)cc1C
3100

----------
PROTOCOL: Half life in rat at 5 mg/kg, po
Assay type: ADME, organism-based
RECORDED CONDITIONS: in vivo
ENDPOINT: half-life (h)
Response body: numeric value in h, unit text excluded.

// Input: Cc1ccc(N2CCC(O)CC2)nc1C(=O)Nc1c(C)cc(C(=O)O)cc1C . Output its half-life only.
5.1

----------
TEST SYSTEM: Cytochrome P450 2B6 (Homo sapiens)
Sequence (P20813 whole entry): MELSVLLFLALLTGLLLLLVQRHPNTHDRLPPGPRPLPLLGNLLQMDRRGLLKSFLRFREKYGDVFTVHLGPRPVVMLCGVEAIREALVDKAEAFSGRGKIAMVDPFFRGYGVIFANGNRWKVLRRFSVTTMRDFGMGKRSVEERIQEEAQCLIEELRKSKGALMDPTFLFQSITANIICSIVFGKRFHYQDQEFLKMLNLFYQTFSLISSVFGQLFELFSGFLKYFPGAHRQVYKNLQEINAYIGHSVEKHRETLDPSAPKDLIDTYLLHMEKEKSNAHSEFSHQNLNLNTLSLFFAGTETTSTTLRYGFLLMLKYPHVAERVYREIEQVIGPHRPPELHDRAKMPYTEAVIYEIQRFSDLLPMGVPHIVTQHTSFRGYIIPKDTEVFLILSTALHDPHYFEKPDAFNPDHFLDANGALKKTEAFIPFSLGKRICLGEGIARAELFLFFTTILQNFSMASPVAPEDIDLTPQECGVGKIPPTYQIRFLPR
ENDPOINT: IC50

Give a short answer stating reported IC50 for Cc1ccc(N2CCC(O)CC2)nc1C(=O)Nc1c(C)cc(C(=O)O)cc1C .
> 10 µM

----------
TEST SYSTEM: Cytochrome P450 2C19 (Homo sapiens)
Sequence (P33261 whole entry): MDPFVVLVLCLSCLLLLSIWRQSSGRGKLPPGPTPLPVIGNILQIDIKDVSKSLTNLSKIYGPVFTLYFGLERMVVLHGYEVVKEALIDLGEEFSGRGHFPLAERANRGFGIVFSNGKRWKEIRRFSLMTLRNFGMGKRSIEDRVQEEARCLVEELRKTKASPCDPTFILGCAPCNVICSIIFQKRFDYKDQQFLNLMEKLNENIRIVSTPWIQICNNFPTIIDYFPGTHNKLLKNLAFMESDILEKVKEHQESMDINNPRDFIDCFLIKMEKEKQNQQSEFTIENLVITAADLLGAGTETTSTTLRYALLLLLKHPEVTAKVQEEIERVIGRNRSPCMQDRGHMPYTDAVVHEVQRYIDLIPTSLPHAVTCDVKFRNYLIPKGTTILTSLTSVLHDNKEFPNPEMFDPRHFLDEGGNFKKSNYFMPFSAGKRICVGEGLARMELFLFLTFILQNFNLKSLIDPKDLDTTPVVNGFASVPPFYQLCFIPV
ENDPOINT: IC50

Provide IC50, recorded with Cytochrome P450 2C19 (Homo sapiens), of Cc1ccc(N2CCC(O)CC2)nc1C(=O)Nc1c(C)cc(C(=O)O)cc1C
> 10 µM

----------
PROTOCOL: Clearance in dog at 1 mg/kg, iv
Assay type: ADME, organism-based, Canis lupus familiaris
RECORDED CONDITIONS: in vivo
ENDPOINT: clearance (mL/min/kg)
// units = mL/min/kg; emit number, no label

For Cc1ccc(N2CCC(O)CC2)nc1C(=O)Nc1c(C)cc(C(=O)O)cc1C , write its clearance.
10

----------
TEST SYSTEM: Prostaglandin E2 receptor EP4 subtype (Homo sapiens)
PROTOCOL: Antagonist activity against human EP4 expressed in HEK293 cells assessed as inhibition of PGE2-stimulated production of cAMP incubated for 20 mins by HTRF assay
Type: functional, cell-based
Quick reference for IC50 among some compounds
Enter your answer as a number in nM; do not include the unit.

Example results:
Cc1ccc(N2CCC(C)(O)CC2)nc1C(=O)Nc1c(C)cc(C(=O)O)cc1C = 39.8
Cc1ccc(N2CCC(O)CC2)nc1C(=O)Nc1c(C)ccc(C(=O)O)c1C = 19.5
Cc1ccc(N2CCC(CO)C2)nc1C(=O)Nc1c(C)cc(C(=O)O)cc1C (stereo not drawn) = 84
Cc1ccc(N2CCCC(CO)C2)nc1C(=O)Nc1c(C)ccc(C(=O)O)c1C (stereo not drawn) = 14.2
Cc1ccc(N2CCC(C)(O)CC2)nc1C(=O)Nc1c(C)ccc(C(=O)O)c1C = 87.9
COC1CCN(c2ccc(C)c(C(=O)Nc3c(C)cc(C(=O)O)cc3C)n2)CC1 = 96.7
Cc1ccc(N2CCCC(CO)C2)nc1C(=O)Nc1c(C)cc(C(=O)O)cc1C (stereo not drawn) = 16.5

Report measured IC50 on Prostaglandin E2 receptor EP4 subtype (Homo sapiens); entry: Cc1ccc(N2CCC(F)(F)CC2)nc1C(=O)Nc1c(C)cc(C(=O)O)cc1C
1.61
